target: recombinant human mGluR2 (Homo sapiens (Human)); assay: FLIPR Ca2+ mobilization antagonist assay in CHO dhfr- cells expressing human mGluR2 and Gα16; details: antagonist response after addition of 2,500 nM glutamate, Fluo-4 AM, FLIPR384
Sequence (Q14416 19-872): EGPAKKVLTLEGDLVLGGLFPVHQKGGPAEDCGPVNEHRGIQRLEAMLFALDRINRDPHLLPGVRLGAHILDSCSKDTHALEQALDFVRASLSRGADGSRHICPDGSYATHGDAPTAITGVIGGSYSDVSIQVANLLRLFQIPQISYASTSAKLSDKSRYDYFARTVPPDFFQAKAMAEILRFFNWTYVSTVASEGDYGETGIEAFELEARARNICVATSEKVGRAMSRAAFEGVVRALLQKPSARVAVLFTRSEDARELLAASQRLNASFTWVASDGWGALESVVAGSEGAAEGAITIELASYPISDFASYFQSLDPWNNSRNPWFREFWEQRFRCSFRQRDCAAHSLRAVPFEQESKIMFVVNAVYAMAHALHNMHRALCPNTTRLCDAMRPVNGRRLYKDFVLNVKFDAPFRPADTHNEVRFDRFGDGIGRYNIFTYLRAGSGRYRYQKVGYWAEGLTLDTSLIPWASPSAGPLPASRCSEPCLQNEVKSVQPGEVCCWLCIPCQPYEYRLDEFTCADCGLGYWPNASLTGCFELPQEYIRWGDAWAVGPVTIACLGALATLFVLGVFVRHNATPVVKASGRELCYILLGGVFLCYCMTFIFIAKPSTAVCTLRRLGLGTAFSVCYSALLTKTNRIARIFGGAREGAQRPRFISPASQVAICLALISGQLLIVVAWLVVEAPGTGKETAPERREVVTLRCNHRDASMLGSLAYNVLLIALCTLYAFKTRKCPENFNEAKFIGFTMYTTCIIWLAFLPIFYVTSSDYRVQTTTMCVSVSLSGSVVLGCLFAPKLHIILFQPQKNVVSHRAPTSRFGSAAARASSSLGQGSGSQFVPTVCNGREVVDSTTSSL
pIC50: −log10 of the molar value.
readoutName: pIC50

• NC(=O)c1cc(-c2ccc(F)cc2Cl)c2c(n1)CN(Cc1ccnc(C(F)(F)F)n1)CC2 [Example 11-5] = 7.75
• NC(=O)c1cc(-c2ccc(F)cc2)c2c(n1)CN(Cc1cc(C(F)(F)F)ncn1)CC2 [Example 11-10] = 8.12
• C[C@@H]1CN(c2cc(C(N)=O)nc3c2CCN(Cc2ccnc(C(F)(F)F)c2)C3)CCO1 [Example 5-2] = 7.10
• CC1(C)CCC(CN2CCc3c(-c4ccc(Cl)cc4F)cc(C(N)=O)nc3C2)CO1 (single isomer, unassigned) [Example 1-21] = 8.03
• CC(C)n1nccc1CN1CCc2c(-c3ccc(F)cc3F)cc(C(N)=O)nc2C1 [Example 1-9] = 8.09

P. CC1c2nc(C(N)=O)cc(-c3ccc(F)cc3F)c2CCN1Cc1ccnn1C(C)C (single isomer, unassigned) [Example 1-15A]
Q. CC(c1ccnn1C)N1CCc2c(-c3ccc(F)cc3F)cc(C(N)=O)nc2C1 (single isomer, unassigned) [Example 7-4]
Which record would sort first by descending pIC50, P or Q ? Label of pick, please.
P

a. NC(=O)c1cc(-c2ccc(F)cc2F)c2c(n1)CN(CC(O)c1ccccc1)CC2 (racemic) [Example 8-1A]
b. NC(=O)c1cc(-c2cnc(C(F)F)s2)c2c(n1)CN(Cc1ccnc(OC(F)F)c1)CC2 [Example 2-15]
c. NC(=O)c1cc(-c2ccc(F)cc2Cl)c2c(n1)CN(Cc1ccnc(OC(F)F)c1)CC2 [Example 2-11]
d. NC(=O)c1cc(-c2cccc(C(F)(F)F)c2)c2c(n1)CN(Cc1ccnc(C(F)(F)F)c1)CC2 [Example 2-8]
Ordering criterion: pIC50; begin with the maximum. Enter labels, ranked according to the request.
c, a, b, d

P. NC(=O)c1cc(-c2ccc(Cl)cc2F)c2c(n1)CN(Cc1ncon1)CC2 [Example 9-1]
Q. COC1CCN(c2cc(C(N)=O)nc3c2CCN(Cc2ccnn2C(C)C)C3C)CC1 (single isomer, unassigned) [Example 1-22]
Min pIC50? P | Q Label of pick, please.
Q
(Q: 7.30, P: 7.56)

a. COc1cc(CN2CCc3c(N4CCC(F)(F)CC4)cc(C(N)=O)nc3C2)ccn1 [Example 5-3]
b. NC(=O)c1cc(-c2ccccc2F)c2c(n1)CN(Cc1ccnc(C(F)(F)F)n1)CC2 [Example 11-8]
c. NC(=O)c1cc(-c2ccc(F)cc2)c2c(n1)CN(C[C@H]1CCN[C@@H](C(F)(F)F)C1)CC2 [Example 1-1A]
d. CS(=O)(=O)c1cccc(CN2CCc3c(-c4ccc(F)cc4)cc(C(N)=O)nc3C2)c1 [Example 2-6]
e. COc1cc(CN2CCc3c(-c4ccc(F)cc4Cl)cc(C(N)=O)nc3C2)ccn1 [Example 13-4]
Ordering criterion: pIC50; begin with the maximum. Enter labels, ranked according to the request.
e, b, d, a, c

I. Cc1cc(-c2cc(C(N)=O)nc3c2CCN(Cc2ccnc(OC(F)F)c2)C3)sn1 [Example 2-16]
II. COc1cc(C(N2CCc3c(-c4cnn(C)c4)cc(C(N)=O)nc3C2)C(F)(F)F)ccn1 (racemic) [Example 3-2B]
III. Cc1cc(-c2cc(C(N)=O)nc3c2CCN(Cc2ccnc(C(F)(F)F)c2)C3)ccn1 [Example 2-14]
IV. NC(=O)c1cc(-c2cc(F)ccc2F)c2c(n1)CN(Cc1ccnc(C(F)(F)F)n1)CC2 [Example 11-2]
Ordering criterion: pIC50; begin with the maximum. Enter labels, ranked according to the request.
II, I, IV, III
(II: 7.94, I: 7.57, IV: 7.28, III: 6.81)

1. NC(=O)c1cc(-c2ccc(F)cc2)c2c(n1)CN(C(c1cccnc1)C(F)(F)F)CC2 (racemic) [Example 3-1B]
2. NC(=O)c1cc(-c2ccc(F)cc2F)c2c(n1)CN(C(CO)c1ccccc1)CC2 (racemic) [Example 8-2B]
Which record would sort first by descending pIC50, 1 or 2 ? Label of pick, please.
2
(2: 7.94, 1: 7.65)

P. NC(=O)c1cc(-n2cc(Cl)cn2)c2c(n1)CN(Cc1ccnc(C(F)(F)F)n1)CC2 [Example 12-3]
Q. COc1cc(C(N2CCc3c(C4=CCC(C)CC4)cc(C(N)=O)nc3C2)C(F)(F)F)ccn1 (racemic) [Example 4-3A]
Min pIC50? P | Q Label of pick, please.
P
(P: 7.03, Q: 7.29)

P. CC1CCCN(c2cc(C(N)=O)nc3c2CCN(Cc2ccnc(C(F)(F)F)c2)C3)C1 (single isomer, unassigned) [Example 5-5A]
Q. N#Cc1cnn(-c2cc(C(N)=O)nc3c2CCN(Cc2ccnc(C(F)(F)F)c2)C3)c1 [Example 2-25]
Which record would sort first by descending pIC50, P or Q ? Label of pick, please.
P

P. NC(=O)c1cc(-c2cc(C3CC3)ns2)c2c(n1)CN(Cc1ccnc(OC(F)F)c1)CC2 [Example 2-27]
Q. CC(C)(C)n1nncc1CN1CCc2c(-c3c(F)cc(Cl)cc3F)cc(C(N)=O)nc2C1 [Example 1-17]
Min pIC50? P | Q Label of pick, please.
P
